Biological target: IRAK4 kinase (Homo sapiens (Human), UniProt Q9NWZ3)
Sequence (Q9NWZ3 whole entry): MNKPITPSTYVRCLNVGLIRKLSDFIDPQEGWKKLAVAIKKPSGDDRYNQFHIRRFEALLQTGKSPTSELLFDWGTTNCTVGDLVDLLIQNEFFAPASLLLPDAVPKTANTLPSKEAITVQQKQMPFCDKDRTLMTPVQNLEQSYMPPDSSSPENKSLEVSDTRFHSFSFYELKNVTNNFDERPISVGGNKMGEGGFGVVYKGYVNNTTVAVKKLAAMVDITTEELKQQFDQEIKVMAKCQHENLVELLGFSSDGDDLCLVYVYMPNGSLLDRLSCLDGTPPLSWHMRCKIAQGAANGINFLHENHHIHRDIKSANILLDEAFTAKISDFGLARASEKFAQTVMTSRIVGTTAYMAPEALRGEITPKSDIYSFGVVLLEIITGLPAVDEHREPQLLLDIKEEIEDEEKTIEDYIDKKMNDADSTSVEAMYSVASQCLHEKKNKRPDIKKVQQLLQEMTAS
Test: IRAK4 Kinase Inhibition Assay (Cisbio HTRF KinEASE-STK S1 kit)
Type: biochemical
Settings: IRAK4 kinase protein 10 nM, ATP 200 μM, STK Substrate 1-biotin 1 μM, 37° C. 2 h, read-out: IC50 (nM), IRAK4 kinase inhibitory activity
Measured Attribute: IC50

Study these solved cases before continuing.
O=C(O)c1cnn2c(-c3cn(-c4cn(C5CCCCC5)nc4C(F)F)nn3)ccc2c1 [Compound 61A] ... 100 to 1000 nM
O=C(NC1CCNC1)c1cnn2c(-c3cn(-c4cn(C5CCCCC5)nc4C(F)F)nn3)ccc2c1 (stereo not shown) [Compound 67A] ... > 5000 nM
C[C@H]1COCCN1c1ccn2ncc(-c3cn(-c4cn(C5CCCCC5)nc4C(F)F)nn3)c2n1 [Compound 82A] ... 100 to 1000 nM
CC1(C)COCCN1c1ccn2ncc(-c3cn(-c4cn([C@H]5CC[C@H](CO)CC5)nc4C(F)F)nn3)c2n1 [Compound 88A] ... 100 to 1000 nM
OC[C@H]1CC[C@H](n2cc(-n3cc(-c4cnn5ccc(N6CCC(O)CC6)nc45)nn3)c(C(F)F)n2)CC1 [Compound 97A] ... < 100 nM

Per the records, this molecule ( CN1CCN(c2ccn3ncc(-c4cn(-c5cn([C@H]6CC[C@H](CO)CC6)nc5C(F)F)nn4)c3n2)CC1 [Compound 95A] ) has IC50 equal to 100 to 1000 nM

Per the records, this molecule ( C[C@@H]1C[C@H](n2cc(-n3cc(-c4cnn5ccc(N6CCOCC6)nc45)nn3)c(C(F)F)n2)CCN1 [Compound 73A] ) has IC50 equal to 100 to 1000 nM

Origin of values: patent US20260028337A1
